The measured values listed here are drawn from the supplement of paper PMC9233669.

self-aminoacylation listing for selected sequences.
Test system: biotinyl-Ile-oxazolone
assay_text: self-aminoacylation, catalytic enhancement (BIO) (fold over background); higher = more active; k-Seq, kA / k0A0; sequences stand for … in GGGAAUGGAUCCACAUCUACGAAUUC…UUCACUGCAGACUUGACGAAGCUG
This sample holds only a part of the variants without activity.
experimental_readout: self-aminoacylation

sequence_content	experimental_readout	observed_measurement
AUGUUAGCUAAUAGUCGCAAG [Fam3.1 aminoacylation ribozyme variant]	self-aminoacylation	1.57
AUUACCCUGGUUAUCGAGUGA [Fam2.1 aminoacylation ribozyme variant]	self-aminoacylation	3.83
AUCACCCUGGUGAUCGAGUGA [Fam2.1 aminoacylation ribozyme variant]	self-aminoacylation	3.57
AGUCACCUCGGUCAUCGGGUG [Fam2.2 aminoacylation ribozyme variant]	self-aminoacylation	4.47
AAAUUUGCUAAUAGUCCCAAG [Fam3.1 aminoacylation ribozyme variant]	self-aminoacylation	1.24
CGACUACAAACAAUCGGUCUG [Fam1A.1 aminoacylation ribozyme variant]	self-aminoacylation	1.09
AUUACCCUGGCCAUCGGGUGA [Fam2.1 aminoacylation ribozyme variant]	self-aminoacylation	3.8
CUACUUCAAACCGUCGGUCUG [Fam1A.1 aminoacylation ribozyme variant]	self-aminoacylation	0.831
AUUACCCUGGGCAUCAAGUGA [Fam2.1 aminoacylation ribozyme variant]	self-aminoacylation	1.16

---

Tested on: biotinyl-Phe-oxazolone
assay_text: self-aminoacylation, catalytic enhancement (BFO) (fold over background); higher = more active; k-Seq, kA / k0A0; sequences stand for … in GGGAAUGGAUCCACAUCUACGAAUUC…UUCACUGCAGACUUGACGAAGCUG
This sample holds only a part of the variants without activity.
Binned self-aminoacylation; ranges: lo = under 3, med = from 3 up to 10, hi = 10 and over

sequence_content	system	cat
ACUACCCGGGUCAUCGAGUGA [Fam2.1 aminoacylation ribozyme variant]	biotinyl-Phe-oxazolone	hi
AUGCUCCUAGGUCAUCGGGUG [Fam2.2 aminoacylation ribozyme variant]	biotinyl-Phe-oxazolone	hi
AUUAUCCUGGUCAUCGAGUGG [Fam2.1 aminoacylation ribozyme variant]	biotinyl-Phe-oxazolone	med
AUUACCCUGGGCAUCGAGUGU [Fam2.1 aminoacylation ribozyme variant]	biotinyl-Phe-oxazolone	lo
CUUCACCUAGGUCAUCGUGUG [Fam2.2 aminoacylation ribozyme variant]	biotinyl-Phe-oxazolone	med
AUACACCUAGGUAAUCGGGUG [Fam2.2 aminoacylation ribozyme variant]	biotinyl-Phe-oxazolone	hi
AUUCACCUAGCUCAUCGGGUA [Fam2.2 aminoacylation ribozyme variant]	biotinyl-Phe-oxazolone	hi
AUUUACCUCGGUCAUCGGGUG [Fam2.2 aminoacylation ribozyme variant]	biotinyl-Phe-oxazolone	hi
CUACAUCAAACAAUCGCUCUG [Fam1A.1 aminoacylation ribozyme variant]	biotinyl-Phe-oxazolone	lo
AUCCACCUAGGUCAUUGGGUG [Fam2.2 aminoacylation ribozyme variant]	biotinyl-Phe-oxazolone	hi
AUUCACCAAGGACAUCGGGUG [Fam2.2 aminoacylation ribozyme variant]	biotinyl-Phe-oxazolone	hi
CAACACUGCAAGCAAUCGGUC [Fam1B.1 aminoacylation ribozyme variant]	biotinyl-Phe-oxazolone	lo
AAGUUUGCUAAUAGUCGCAAG [Fam3.1 aminoacylation ribozyme variant]	biotinyl-Phe-oxazolone	hi
AUCACCCUGGUCUUCGAGUGA [Fam2.1 aminoacylation ribozyme variant]	biotinyl-Phe-oxazolone	hi
AUUCACCUAGGUCAUCGCGGG [Fam2.2 aminoacylation ribozyme variant]	biotinyl-Phe-oxazolone	hi
CUUAGCCUGGUCAUCGAGUGA [Fam2.1 aminoacylation ribozyme variant]	biotinyl-Phe-oxazolone	lo
AUUCACCUAGGUAAUCGGAUG [Fam2.2 aminoacylation ribozyme variant]	biotinyl-Phe-oxazolone	lo
AUUCACUUAGGUCGUCGGGUG [Fam2.2 aminoacylation ribozyme variant]	biotinyl-Phe-oxazolone	med
AAGUUUGCUAAUAGUGGCGAG [Fam3.1 aminoacylation ribozyme variant]	biotinyl-Phe-oxazolone	lo
AUGCACCUAGGUCGUCGGGUG [Fam2.2 aminoacylation ribozyme variant]	biotinyl-Phe-oxazolone	med
AUUCCCCUAGGUCAUCGGGCG [Fam2.2 aminoacylation ribozyme variant]	biotinyl-Phe-oxazolone	hi
AUCCACCUAGGUCAUAGGGUG [Fam2.2 aminoacylation ribozyme variant]	biotinyl-Phe-oxazolone	lo
AUUCACCUCGGUCAUCGGGGG [Fam2.2 aminoacylation ribozyme variant]	biotinyl-Phe-oxazolone	hi
ACGUUUCCUAAUAGUCGCAAG [Fam3.1 aminoacylation ribozyme variant]	biotinyl-Phe-oxazolone	lo
CUACUUCAAACAAUCGGUCCG [Fam1A.1 aminoacylation ribozyme variant]	biotinyl-Phe-oxazolone	med
AUUCACCUAGUGCAUCGGGUG [Fam2.2 aminoacylation ribozyme variant]	biotinyl-Phe-oxazolone	med
CUUCUUCAAACAAGCGGUCUG [Fam1A.1 aminoacylation ribozyme variant]	biotinyl-Phe-oxazolone	lo
AUUCACCGCGGUCAUCGGGUG [Fam2.2 aminoacylation ribozyme variant]	biotinyl-Phe-oxazolone	hi
CCACACUUAAAUCAAUCGGUC [Fam1B.1 aminoacylation ribozyme variant]	biotinyl-Phe-oxazolone	lo
AUUCACCUCGAUCAUCGGGUG [Fam2.2 aminoacylation ribozyme variant]	biotinyl-Phe-oxazolone	hi
AUUCACCAAGGUCGUCGGGUG [Fam2.2 aminoacylation ribozyme variant]	biotinyl-Phe-oxazolone	hi
CCACACUUCAAGCAAUCGGAU [Fam1B.1 aminoacylation ribozyme variant]	biotinyl-Phe-oxazolone	lo
AGUCACCUAGGUCAUUGGGUG [Fam2.2 aminoacylation ribozyme variant]	biotinyl-Phe-oxazolone	hi
AAGGUUGCUAAUAGUCGCGAG [Fam3.1 aminoacylation ribozyme variant]	biotinyl-Phe-oxazolone	lo

---

Tested on: biotinyl-Ile-oxazolone
assay_text: self-aminoacylation, catalytic enhancement (BIO) (fold over background); higher = more active; k-Seq, kA / k0A0; sequences stand for … in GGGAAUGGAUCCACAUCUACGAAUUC…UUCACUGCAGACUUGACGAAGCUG
Variants at the floor of the assay were thinned out.

sequence_content	self-aminoacylation
CUACUUAAAACAAUCCGUCUG [Fam1A.1 aminoacylation ribozyme variant]	0.799
CCACACUUGAAGCUAUCGGUC [Fam1B.1 aminoacylation ribozyme variant]	1.07
AUGCACCUAUGUCAUCGGGUG [Fam2.2 aminoacylation ribozyme variant]	2.81
AUUCACCCAGGUCAUUGGGUG [Fam2.2 aminoacylation ribozyme variant]	2.31

---

Tested on: biotinyl-Trp-oxazolone
assay_text: self-aminoacylation, catalytic enhancement (BWO) (fold over background); higher = more active; k-Seq, kA / k0A0; sequences stand for … in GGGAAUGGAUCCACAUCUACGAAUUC…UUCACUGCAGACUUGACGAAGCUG
Fewer inactive variants are shown than the library holds.
experimental_readout: self-aminoacylation

sequence_content	observed_measurement
AAGUUCGCAAAUAGUCGCAAG [Fam3.1 aminoacylation ribozyme variant]	1.42
AUUAACCUGGUCAUAGAGUGA [Fam2.1 aminoacylation ribozyme variant]	6.17
AUUAGCCUGGUCAUCGAAUGA [Fam2.1 aminoacylation ribozyme variant]	1.27
CAGUUUGCAAAUAGUCGCAAG [Fam3.1 aminoacylation ribozyme variant]	2.02
AAGUUUACUAAUUGUCGCAAG [Fam3.1 aminoacylation ribozyme variant]	2
CUCCUUAAAACAAUCGGUCUG [Fam1A.1 aminoacylation ribozyme variant]	1.32
CCACACAUCAAGCACUCGGUC [Fam1B.1 aminoacylation ribozyme variant]	0.94
AUUCACGUACGUCAUCGGGUG [Fam2.2 aminoacylation ribozyme variant]	9.47
AUGUACCUAGGUCAUCGGGUG [Fam2.2 aminoacylation ribozyme variant]	5.8
AUUCACCCAGAUCAUCGGGUG [Fam2.2 aminoacylation ribozyme variant]	1.84
AUUACCCUGUUAAUCGAGUGA [Fam2.1 aminoacylation ribozyme variant]	13.4
AUUACCCUGGUCAUCGCGCGA [Fam2.1 aminoacylation ribozyme variant]	3.18
CUACUUCAAACAAUGGGCCUG [Fam1A.1 aminoacylation ribozyme variant]	0.896
AUUCAACUAGGUAAUCGGGUG [Fam2.2 aminoacylation ribozyme variant]	2.81
AUUCACAUAGGUCAUCGGAUG [Fam2.2 aminoacylation ribozyme variant]	0.403
AUUACCCUGCUCUUCGAGUGA [Fam2.1 aminoacylation ribozyme variant]	2.72
AAGUUUGCUAAUAGACGCUAG [Fam3.1 aminoacylation ribozyme variant]	0.501
AGUACCCUGGUCAGCGAGUGA [Fam2.1 aminoacylation ribozyme variant]	7.2
CUAAUUCAAACAAUCGAUCUG [Fam1A.1 aminoacylation ribozyme variant]	0.361
CAACACUGCAAGCAAUCGGUC [Fam1B.1 aminoacylation ribozyme variant]	0.788
UUUACCCUAGUCAUCGAGUGA [Fam2.1 aminoacylation ribozyme variant]	7.33
AUUCACCAAGGUCAUAGGGUG [Fam2.2 aminoacylation ribozyme variant]	2.2
UUACUUCAAACAAUCGGACUG [Fam1A.1 aminoacylation ribozyme variant]	4.92
CCACUCUUCACGCAAUCGGUC [Fam1B.1 aminoacylation ribozyme variant]	0.952
CCGCACUUCAAGCCAUCGGUC [Fam1B.1 aminoacylation ribozyme variant]	2.01
AUUCUCCUAGGUCAUCGGGGG [Fam2.2 aminoacylation ribozyme variant]	3
AUUUCCCUGGACAUCGAGUGA [Fam2.1 aminoacylation ribozyme variant]	8.11
AUUCACCUAGGUCAUCGCGGG [Fam2.2 aminoacylation ribozyme variant]	2.25
AAGUUUGCAAAUUGUCGCAAG [Fam3.1 aminoacylation ribozyme variant]	1.53
AUUACCCUGGUCAUCUAGUGA [Fam2.1 aminoacylation ribozyme variant]	11.3
CUACUUCAAGCAAUCGGUAUG [Fam1A.1 aminoacylation ribozyme variant]	4.52
AAGUUUCCUAAUAGUCGCAAG [Fam3.1 aminoacylation ribozyme variant]	1.62
AUUACCCUGGGCAUGGAGUGA [Fam2.1 aminoacylation ribozyme variant]	8.01
AUUCACCUAGGUCAUCGGGCU [Fam2.2 aminoacylation ribozyme variant]	6.09
CUACUUCAUACAGUCGGUCUG [Fam1A.1 aminoacylation ribozyme variant]	0.282
